Tested on: SW480
Test name: cell viability (CellTiter-Glo) relative to plate median (fraction of plate median); higher = more viable cells
Assay setup: 5 µM; treatment time 24 h; reporter: 7TFP
Task for the reader: assign each of the following compounds its reported cell viability.
Just the number.

Query: For CC(=O)/C(=C\c1ccccc1)CC(=O)O , write its cell viability.
Result: 1

Query: Determine from records and report cell viability for O=C(O)c1cc(O)ccc1O
Result: 1

Query: Check the records and state cell viability for Cc1cc2cc3c(C)cc(=O)oc3c(C)c2o1
Result: 1

Query: Read the entry COc1ccc2c(=O)c(-c3cc4c(cc3OC)OCO4)coc2c1 and write its reported cell viability.
Result: 1.04

Query: Answer with the recorded cell viability of CO[C@@]12[C@H](COC(N)=O)C3=C(C(=O)C(C)=C(N)C3=O)N1C[C@@H]1N[C@@H]12 only.
Result: 1.25

Query: Consider the compound CN(C)[C@@H]1C(O)=C(C(N)=O)C(=O)[C@@]2(O)C(O)=C3C(=O)c4c(O)cccc4[C@@](C)(O)[C@H]3[C@H](O)[C@@H]12 . State its measured cell viability.
Result: 1.01

Query: Dear colleague, please send me the reported cell viability for OCCN1C[C@H](O)[C@@H](O)[C@H](O)[C@H]1CO when you can.
Result: 0.97

Query: Tell me measured cell viability for Cc1ccc2c(Cl)cc(Cl)c(O)c2n1 please.
Result: 1.07

Query: Consider the compound O=C(OC[C@H]1O[C@@H](OC(=O)c2cc(O)c(O)c(OC(=O)c3cc(O)c(O)c(O)c3)c2)[C@H](OC(=O)c2cc(O)c(O)c(OC(=O)c3cc(O)c(O)c(O)c3)c2)[C@@H](OC(=O)c2cc(O)c(O)c(OC(=O)c3cc(O)c(O)c(O)c3)c2)[C@@H]1OC(=O)c1cc(O)c(O)c(OC(=O)c2cc(O)c(O)c(O)c2)c1)c1cc(O)c(O)c(OC(=O)c2cc(O)c(O)c(O)c2)c1 . State its measured cell viability.
Result: 1

Query: Return cell viability (reported value) for this compound: C[C@@H]1NC(=O)[C@H](Cc2ccccc2)NC1=O [cyclo(alanylphenylalanyl)]
Result: 0.96

Query: Annotate the compound O=C(O)c1cc(=O)c2ccccc2[nH]1 with its measured cell viability.
Result: 0.956

Query: Query cell viability for Cn1nnnc1SCC1=C(C(=O)O)N2C(=O)[C@@H](NC(=O)[C@H](O)c3ccccc3)[C@H]2SC1
Result: 1.01

Query: Supply cell viability value. Item: C#C[C@]1(O)CC[C@H]2[C@@H]3CCC4=CCCC[C@@H]4[C@H]3CC[C@@]21C
Result: 0.97

Query: Provide measured cell viability value, entry: O=C(Nc1ccc(C(=O)O)c(O)c1)c1ccccc1
Result: 1.01

Query: Return cell viability (reported value) for this compound: C#CCCCCCCCCCCCC(O)CC(O)COC(C)=O (configuration not stated)
Result: 1.06

Query: Check the records and state cell viability for O=C(CCc1ccc(O)cc1)c1c(O)cc(O)cc1O
Result: 0.933

Query: Note down cell viability recorded for CN1C(C(=O)Nc2ccccn2)=C(O)c2ccccc2S1(=O)=O
Result: 0.92
